This collection of values is drawn from patent US8084479B2.

- TARGET ENTITY: PKBα (Homo sapiens, UniProt P31749)
- Sequence (P31749 118-480 limits assumed): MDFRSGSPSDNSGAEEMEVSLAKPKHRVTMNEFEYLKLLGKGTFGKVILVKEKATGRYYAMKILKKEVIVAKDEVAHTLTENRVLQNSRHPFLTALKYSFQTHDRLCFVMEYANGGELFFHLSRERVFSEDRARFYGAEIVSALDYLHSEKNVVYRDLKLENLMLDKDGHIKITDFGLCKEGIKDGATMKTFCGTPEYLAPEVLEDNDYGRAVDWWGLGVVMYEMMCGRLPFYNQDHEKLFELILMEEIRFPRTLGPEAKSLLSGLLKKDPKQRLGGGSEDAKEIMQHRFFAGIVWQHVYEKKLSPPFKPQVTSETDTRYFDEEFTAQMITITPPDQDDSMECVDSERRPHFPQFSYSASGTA
- ASSAY NAME: PKB kinase assay (P33-labeled ATP, peptide substrate, filter plate)
- EXPERIMENTAL PARAMETERS: PKBα enzyme (full length or kinase domain with pleckstrin domain deleted)
pIC50: −log10 of the molar value.
I'd appreciate it if you could supply pIC50 values for the items below.

The reported pIC50 value, PKBα (Homo sapiens, UniProt P31749), for N[C@H](CNc1ncc(-c2ccc3c(c2)C(F)(F)C(=O)N3)s1)Cc1ccc(C(F)(F)F)cc1 [Example 41] reads 6.00 to 7.30

The reported pIC50 value, PKBα (Homo sapiens, UniProt P31749), for Cn1c(=O)[nH]c2ccc(-c3cnc(NC[C@@H](N)Cc4cccc(C(F)(F)F)c4)s3)cc21 [Example 82] reads 6.00 to 7.30

The reported pIC50 value, PKBα (Homo sapiens, UniProt P31749), for Cc1ccc(C[C@H](N)CNc2ncc(-c3ccc4c(c3)CC(=O)N4)s2)cc1 [Example 116] reads 6.00 to 7.30

The reported pIC50 value, PKBα (Homo sapiens, UniProt P31749), for N[C@H](CNc1ncc(-c2cnc3c(c2)CC(=O)N3)s1)Cc1ccc(C(F)(F)F)cc1 [Example 226] reads > 7.30

The reported pIC50 value, PKBα (Homo sapiens, UniProt P31749), for CS(=O)(=O)NCC#Cc1nc(NC[C@@H](N)Cc2ccc(C(F)(F)F)cc2)sc1-c1ccc2cnccc2c1 [Example 151] reads 5.00 to 6.00

The reported pIC50 value, PKBα (Homo sapiens, UniProt P31749), for COc1ccc(CC(N)CNc2ncc(-c3ccc4cnccc4c3)s2)cc1F (stereo not shown) [Example 131] reads 6.00 to 7.30

The reported pIC50 value, PKBα (Homo sapiens, UniProt P31749), for C[C@@H](Nc1ncc(-c2ccc3[nH]c(=O)n(C)c3c2)s1)[C@@H](N)Cc1ccc(C(F)(F)F)cc1 [Example 232] reads 6.00 to 7.30

The reported pIC50 value, PKBα (Homo sapiens, UniProt P31749), for CC#Cc1nc(NC[C@@H](N)Cc2ccc(C(F)(F)F)cc2)sc1-c1ccc2[nH]nc(C)c2c1 [Example 153] reads > 7.30

The reported pIC50 value, PKBα (Homo sapiens, UniProt P31749), for NC(CNc1ncc(-c2ccc3[nH]c(=O)oc3c2)s1)Cc1ccc(O)c(F)c1 (stereo not shown) [Example 216] reads 6.00 to 7.30

The reported pIC50 value, PKBα (Homo sapiens, UniProt P31749), for NC(=O)c1nc(NC[C@@H](N)Cc2ccc(C(F)(F)F)cc2)sc1-c1ccc2cnccc2c1 [Example 121] reads 5.00 to 6.00

The reported pIC50 value, PKBα (Homo sapiens, UniProt P31749), for N[C@H](CNc1ncc(-c2ccc3[nH]c(=O)oc3c2)s1)Cc1ccc(C(F)(F)F)nc1 [Example 172] reads > 7.30

The reported pIC50 value, PKBα (Homo sapiens, UniProt P31749), for N[C@H](CNc1ncc(-c2ccc3c(O)nncc3c2)s1)Cc1ccc(C(F)(F)F)cc1 [Example 65] reads 6.00 to 7.30

The reported pIC50 value, PKBα (Homo sapiens, UniProt P31749), for N[C@H](CNc1nc(C2CCCO2)c(-c2ccc3c(c2)CC(=O)N3)s1)Cc1ccc(Cl)cc1 (stereo partly shown) [Example 197] reads 5.00 to 6.00

The reported pIC50 value, PKBα (Homo sapiens, UniProt P31749), for N[C@H](CNc1ncc(-c2ccc3[nH]c(=O)oc3c2)s1)Cc1cc(F)cc(F)c1 [Example 164] reads 6.00 to 7.30

The reported pIC50 value, PKBα (Homo sapiens, UniProt P31749), for Cc1n[nH]c2ccc(-c3sc(NC[C@@H](N)Cc4ccc(C(F)(F)F)cc4)nc3CO)cc12 [Example 11] reads > 7.30

The reported pIC50 value, PKBα (Homo sapiens, UniProt P31749), for COc1cc(C[C@H](N)CNc2ncc(-c3ccc4[nH]c(=O)oc4c3)s2)ccc1C(F)(F)F [Example 207] reads > 7.30
